All values here come from ChEMBL document CHEMBL1287708.

Experiment: Lipophilicity, log D of the compound in n-octanol-phosphate buffered saline at pH 7.4
Format: physicochemical
assay_endpoint: logD
Simply state the number, no unit and no words.

Entry COc1ccccc1N1CCN(CCCCNC(=O)/C=C/c2ccc([18F])cc2)CC1 — recorded logD = 2.07
